- Test system: Rattus norvegicus
- test details: Percent change of heart rate in conscious DOCA Hypertensive rat at 5 hour after administration of dose of 10 mL (mg/kg po)
- Assay type: functional
measurement type: Change (%)
One number for each entry, in %.

Cc1ccc(N(CC2=NCCN2)c2cccc(O)c2)cc1: 11

Below is a list of molecules. For each, state its recorded Change.
1. N=C(N)Nc1nncc2ccccc12
2. CNc1nnc2c3ccccc3cnn12
3. Nc1nnc2c3ccccc3cnn12
4. CCCC/N=C(/N)Nc1nc2ccccc2nc1C
5. CCCC/N=C(\N)Nc1nncc2ccccc12
6. NNc1nncc2ccccc12 [HYDRALAZINE]

result:
1
-25
2
-4
18
11
